Values compiled from ChEMBL document CHEMBL2202989.

Entries and their measured LC50 follow.
System: BXPC-3
ASSAY_NAME: Growth inhibition of human BxPC3 cells after 48 hrs by SRB assay
Assay type: functional
CONDITIONS: BXPC-3, 48 h
Please reply with the bare figure in nM and do not write the unit itself.

COMPOUND	TESTED_ON	MEASURED_QUANTITY	VALUE_MEASURED
CCN1CCN(CCCc2ccc(C(c3ccccc3)C34CC5CC(CC(C5)C3)C4)cc2)CC1 (configuration not stated)	BXPC-3	LC50	100
CCN1CCN(CCc2ccc(C(c3ccccc3)C34CC5CC(CC(C5)C3)C4)cc2)CC1 (configuration not stated)	BXPC-3	LC50	89.8

Just so you know, measured LC50 for CN1CCN(CCCc2ccc(C(c3ccccc3)C34CC5CC(CC(C5)C3)C4)cc2)CC1 (configuration not stated) came out at 8.8

Just so you know, measured LC50 for CCN1CCN(Cc2ccc(C(c3ccccc3)C34CC5CC(CC(C5)C3)C4)cc2)CC1 (configuration not stated) came out at 9.35

Just so you know, measured LC50 for c1ccc(C(c2ccc(CCCN3CCCCC3)cc2)C23CC4CC(CC(C4)C2)C3)cc1 (configuration not stated) came out at 9.17

Just so you know, measured LC50 for c1ccc(CN2CCN(CCCc3ccc(C(c4ccccc4)C45CC6CC(CC(C6)C4)C5)cc3)CC2)cc1 (configuration not stated) came out at 100

Just so you know, measured LC50 for CN1CCN(Cc2ccc(C(c3ccccc3)C34CC5CC(CC(C5)C3)C4)cc2)CC1 (configuration not stated) came out at 9.13

Just so you know, measured LC50 for c1ccc(C(c2ccc(CN3CCCCC3)cc2)C23CC4CC(CC(C4)C2)C3)cc1 (configuration not stated) came out at 87.5

Just so you know, measured LC50 for c1ccc(C(c2ccc(CCN3CCCCC3)cc2)C23CC4CC(CC(C4)C2)C3)cc1 (configuration not stated) came out at 100

====

Entries and their measured TGI follow.
Test system: MIA PaCa-2
ASSAY_NAME: Growth inhibition of human MIAPaCa2 cells after 48 hrs by SRB assay
Format: functional
CONDITIONS: MIA PaCa-2, 48 h
Please reply with the bare figure in µM and do not write the unit itself.

Field: example entries. Status: answers known.
COMPOUND	UNITS_TEXT	TGI
Nc1ccn([C@@H]2O[C@H](CO)[C@@H](O)C2(F)F)c(=O)n1	µM	100
CN1CCN(CCCc2ccc(C(c3ccccc3)C34CC5CC(CC(C5)C3)C4)cc2)CC1 (centres undefined)	µM	40.1

Just so you know, measured TGI for CCN1CCN(Cc2ccc(C(c3ccccc3)C34CC5CC(CC(C5)C3)C4)cc2)CC1 (centres undefined) came out at 43.7

Just so you know, measured TGI for CN1CCN(Cc2ccc(C(c3ccccc3)C34CC5CC(CC(C5)C3)C4)cc2)CC1 (centres undefined) came out at 6.34

====

Test system: NHDF
ASSAY_NAME: Growth inhibition of human NHDF cells after 48 hrs by SRB assay
Format: cell-based
CONDITIONS: nhdf, 48 h
Entries and their measured LC50 follow.
Please reply with the bare figure in µM and do not write the unit itself.

Field: example entries. Status: answers known.
MOLECULE	LC50, µM
CN1CCN(Cc2ccc(C(c3ccccc3)C34CC5CC(CC(C5)C3)C4)cc2)CC1 (configuration not stated)	100
c1ccc(CN2CCN(CCCc3ccc(C(c4ccccc4)C45CC6CC(CC(C6)C4)C5)cc3)CC2)cc1 (configuration not stated)	100
c1ccc(C(c2ccc(CCCN3CCNCC3)cc2)C23CC4CC(CC(C4)C2)C3)cc1 (configuration not stated)	9.58
c1ccc(C(c2ccc(CCN3CCCCC3)cc2)C23CC4CC(CC(C4)C2)C3)cc1 (configuration not stated)	99.34
c1ccc(C(c2ccc(CN3CCCCC3)cc2)C23CC4CC(CC(C4)C2)C3)cc1 (configuration not stated)	81.19

Just so you know, measured LC50 for CN1CCN(CCCc2ccc(C(c3ccccc3)C34CC5CC(CC(C5)C3)C4)cc2)CC1 (configuration not stated) came out at 100

Just so you know, measured LC50 for CCN1CCN(CCCc2ccc(C(c3ccccc3)C34CC5CC(CC(C5)C3)C4)cc2)CC1 (configuration not stated) came out at 100

Just so you know, measured LC50 for c1ccc(C(c2ccc(CN3CCNCC3)cc2)C23CC4CC(CC(C4)C2)C3)cc1 (configuration not stated) came out at 9.73

Just so you know, measured LC50 for CN1CCN(CCc2ccc(C(c3ccccc3)C34CC5CC(CC(C5)C3)C4)cc2)CC1 (configuration not stated) came out at 100

Just so you know, measured LC50 for CCN1CCN(CCc2ccc(C(c3ccccc3)C34CC5CC(CC(C5)C3)C4)cc2)CC1 (configuration not stated) came out at 100

Just so you know, measured LC50 for c1ccc(C(c2ccc(CCCN3CCCCC3)cc2)C23CC4CC(CC(C4)C2)C3)cc1 (configuration not stated) came out at 9.47

Just so you know, measured LC50 for CCN1CCN(Cc2ccc(C(c3ccccc3)C34CC5CC(CC(C5)C3)C4)cc2)CC1 (configuration not stated) came out at 100
